- system: wild-type human cardiac sodium channel, hNav1.5 (late sodium current) in HEK293 cells (Homo sapiens)
- procedure.text: Late INa screening assay (automated whole-cell patch clamp, PatchXpress)
- Assay type: cell-based
- particulars: HEK293, compound at 1 μM; late INa generated with 10 μM Tefluthrin (or 50 nM ATX II); HEK293 hNav1.5; read-out: Late INa 1 μM (percent block of late INa)
- Protocol: The late sodium current (Late INa) and peak sodium current (Peak INa) assays are performed on an automated electrophysiology platform, PatchXpress 7000A (MDS Analytical Technologies, Sunnyvale, Calif.), which uses the whole cell patch clamp technique to measure currents through the cell membrane of up to 16 cells at a time. […]
metric.name: inhibition at 1 µM
Note: a bare number is incomplete; add the unit.

Name the recorded inhibition at 1 µM for O=c1n(CCOc2ncc(C(F)(F)F)cn2)nc2ccc(-c3ccc(OC(F)(F)F)cc3)cn12 [compound 180] . 22.6%

Name the recorded inhibition at 1 µM for O=c1n(Cc2noc(CO)n2)nc2ccc(-c3ccc(Oc4ccc(F)cc4)cc3)cn12 [compound 146] . 32.6%

Name the recorded inhibition at 1 µM for O=c1n(Cc2noc(CCl)n2)nc2ccc(-c3ccc(OC(F)(F)F)cc3)cn12 [compound 157] . 22.7%

Name the recorded inhibition at 1 µM for COCc1noc(Cn2nc3ccc(-c4ccc(C(F)(F)F)cc4)cn3c2=O)n1 [compound 168] . 19.1%

Name the recorded inhibition at 1 µM for O=c1n(CCOc2nccc3ccccc23)nc2ccc(-c3ccc(OC(F)(F)F)cc3)cn12 [compound 141] . 29.9%

Name the recorded inhibition at 1 µM for O=c1n(CCc2ncccn2)nc2ccc(-c3ccc(OC(F)(F)F)cc3)cn12 [compound 111] . 18.6%

Name the recorded inhibition at 1 µM for CCc1noc(Cn2nc3ccc(-c4ccc(OC(F)(F)F)cc4)cn3c2=O)n1 [compound 166] . 24.4%

Name the recorded inhibition at 1 µM for CC1(C)OC[C@H](c2nc(Cn3nc4ccc(-c5ccc(OC(F)(F)F)cc5)cn4c3=O)no2)O1 [compound 158] . 25.3%

====

- system: wild-type human cardiac sodium channel, hNav1.5 (late sodium current) in HEK293 cells (Homo sapiens)
- procedure.text: Late INa screening assay (automated whole-cell patch clamp, PatchXpress)
- Assay type: cell-based
- particulars: HEK293, compound at 1 μM; late INa generated with 10 μM Tefluthrin (or 50 nM ATX II); HEK293 hNav1.5; read-out: Late INa 1 μM (percent block of late INa)
metric.name: inhibition at 1 µM (%)
Number only, in %; omit the unit.

Name the recorded inhibition at 1 µM for O=c1n(CCc2c(F)cccc2F)nc2ccc(-c3ccc(OC(F)(F)F)cc3)cn12 . 46.9

Name the recorded inhibition at 1 µM for Cc1ccc(OCCn2nc3ccc(-c4ccc(OC(F)(F)F)cc4)cn3c2=O)cc1 . 25.7

Name the recorded inhibition at 1 µM for CC(C)Oc1ccccc1OCC(O)Cn1nc2ccc(-c3ccc(OC(F)(F)F)cc3)cn2c1=O (stereo not shown) . 41.5

Name the recorded inhibition at 1 µM for Cc1noc(Cn2nc3ccc(-c4ccc(OC(F)(F)F)c(F)c4)cn3c2=O)n1 . 18.8

====

- system: wild-type human cardiac sodium channel, hNav1.5 (late sodium current) in HEK293 cells (Homo sapiens, UniProt Q14524)
- Sequence (Q14524 whole entry): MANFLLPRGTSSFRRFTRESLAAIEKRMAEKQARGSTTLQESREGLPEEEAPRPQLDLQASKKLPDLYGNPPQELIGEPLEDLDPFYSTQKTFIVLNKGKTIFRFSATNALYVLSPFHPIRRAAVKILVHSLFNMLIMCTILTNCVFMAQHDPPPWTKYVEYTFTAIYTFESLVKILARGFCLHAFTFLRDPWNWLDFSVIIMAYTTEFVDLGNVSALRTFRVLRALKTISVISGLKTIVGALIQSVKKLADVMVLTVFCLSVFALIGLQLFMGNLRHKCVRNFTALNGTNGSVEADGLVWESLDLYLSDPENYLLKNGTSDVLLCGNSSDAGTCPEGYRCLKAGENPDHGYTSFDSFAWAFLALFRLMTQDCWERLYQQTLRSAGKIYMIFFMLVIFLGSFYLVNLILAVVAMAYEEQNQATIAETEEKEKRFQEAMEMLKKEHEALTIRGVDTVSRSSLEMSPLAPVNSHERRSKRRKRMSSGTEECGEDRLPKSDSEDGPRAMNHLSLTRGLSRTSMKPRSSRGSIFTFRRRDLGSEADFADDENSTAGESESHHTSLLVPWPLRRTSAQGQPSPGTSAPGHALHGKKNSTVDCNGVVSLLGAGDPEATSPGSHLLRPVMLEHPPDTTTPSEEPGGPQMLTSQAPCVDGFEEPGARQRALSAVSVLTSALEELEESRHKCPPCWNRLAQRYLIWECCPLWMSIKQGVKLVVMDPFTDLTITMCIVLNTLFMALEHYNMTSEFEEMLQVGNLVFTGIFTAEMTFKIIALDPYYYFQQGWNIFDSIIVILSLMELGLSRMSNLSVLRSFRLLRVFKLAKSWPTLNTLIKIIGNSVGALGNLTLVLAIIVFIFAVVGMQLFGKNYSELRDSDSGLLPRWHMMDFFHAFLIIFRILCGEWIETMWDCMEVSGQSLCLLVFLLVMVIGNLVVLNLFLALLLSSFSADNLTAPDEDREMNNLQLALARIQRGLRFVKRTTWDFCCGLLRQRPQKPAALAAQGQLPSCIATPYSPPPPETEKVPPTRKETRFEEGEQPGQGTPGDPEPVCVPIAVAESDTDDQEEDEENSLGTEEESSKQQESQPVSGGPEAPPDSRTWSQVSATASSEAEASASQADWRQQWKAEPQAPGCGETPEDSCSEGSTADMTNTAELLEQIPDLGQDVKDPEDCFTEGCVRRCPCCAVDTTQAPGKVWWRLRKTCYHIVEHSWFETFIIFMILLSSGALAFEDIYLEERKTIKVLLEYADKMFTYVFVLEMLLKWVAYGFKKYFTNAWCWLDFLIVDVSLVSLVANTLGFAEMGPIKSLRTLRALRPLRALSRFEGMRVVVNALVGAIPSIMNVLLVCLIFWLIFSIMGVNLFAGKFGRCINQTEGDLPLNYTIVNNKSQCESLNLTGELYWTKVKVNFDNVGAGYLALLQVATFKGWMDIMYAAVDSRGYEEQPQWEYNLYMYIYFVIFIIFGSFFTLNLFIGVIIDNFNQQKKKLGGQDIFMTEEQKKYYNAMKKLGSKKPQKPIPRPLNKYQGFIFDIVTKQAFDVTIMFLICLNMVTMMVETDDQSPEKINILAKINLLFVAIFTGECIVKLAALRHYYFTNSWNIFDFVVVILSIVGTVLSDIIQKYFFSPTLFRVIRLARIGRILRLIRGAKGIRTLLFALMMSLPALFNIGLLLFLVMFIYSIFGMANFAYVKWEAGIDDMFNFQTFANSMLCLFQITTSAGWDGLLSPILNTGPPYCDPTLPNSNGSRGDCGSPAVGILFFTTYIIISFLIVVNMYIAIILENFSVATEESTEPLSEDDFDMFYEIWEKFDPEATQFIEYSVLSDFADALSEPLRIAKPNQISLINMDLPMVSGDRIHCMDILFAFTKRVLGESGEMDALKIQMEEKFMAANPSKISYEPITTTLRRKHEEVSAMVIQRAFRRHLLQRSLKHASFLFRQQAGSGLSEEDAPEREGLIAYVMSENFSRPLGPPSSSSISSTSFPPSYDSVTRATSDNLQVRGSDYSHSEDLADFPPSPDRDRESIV
- procedure.text: Late INa screening assay (automated whole-cell patch clamp, PatchXpress)
- Assay type: cell-based
- particulars: HEK293, compound at 1 μM; late INa generated with 10 μM Tefluthrin (or 50 nM ATX II); HEK293 hNav1.5; read-out: Late INa 1 μM (percent block of late INa)
Provide the recorded inhibition at 1 µM for the entries that follow.
Number only, in %; omit the unit.

Name the recorded inhibition at 1 µM for CC(C)n1nc2ccc(-c3ccc(OC(F)(F)F)cc3)cn2c1=O . 17.6

Name the recorded inhibition at 1 µM for Cn1nc2ccc(-c3ccc(C(F)(F)F)cc3)cn2c1=O . 10.1

Name the recorded inhibition at 1 µM for O=c1n(CCn2cccn2)nc2ccc(-c3ccc(OC(F)(F)F)cc3)cn12 . 12.2

Name the recorded inhibition at 1 µM for Cc1noc(Cn2nc3ccc(-c4ccc(OC(F)(F)F)cc4)c(C)n3c2=O)n1 . 17.3

Name the recorded inhibition at 1 µM for Cc1noc(C)c1Cn1nc2ccc(-c3ccc(OC(F)(F)F)cc3)cn2c1=O . 15.2

Name the recorded inhibition at 1 µM for O=c1n(CCOc2ccccc2Cl)nc2ccc(-c3ccc(OC(F)(F)F)cc3)cn12 . 43.2

Name the recorded inhibition at 1 µM for Cc1cnc(OCCn2nc3ccc(-c4ccc(OC(F)(F)F)cc4)cn3c2=O)nc1 . 32.5

Name the recorded inhibition at 1 µM for CSc1ccnc(OCCn2nc3ccc(-c4ccc(OC(F)(F)F)cc4)cn3c2=O)n1 . 49.6

Name the recorded inhibition at 1 µM for O=c1n(CCOc2ncccn2)nc2ccc(-c3ccc(Oc4ccc(Cl)cc4)cc3)cn12 . 73.9

Name the recorded inhibition at 1 µM for O=c1n(CC(O)COc2ccc(Cl)cc2)nc2ccc(-c3ccc(OC(F)(F)F)cc3)cn12 (centres unmarked) . 10.8

Name the recorded inhibition at 1 µM for O=c1n(Cc2ncco2)nc2ccc(-c3ccc(OC(F)(F)F)cc3)cn12 . 18.1

Name the recorded inhibition at 1 µM for O=c1n(CCOc2nccc(-c3ccccc3)n2)nc2ccc(-c3ccc(OC(F)(F)F)cc3)cn12 . 22.9

Name the recorded inhibition at 1 µM for COc1nc(OCCn2nc3ccc(-c4ccc(OC(F)(F)F)cc4)cn3c2=O)ncc1Cl . 32.4

Name the recorded inhibition at 1 µM for CN(C)c1nc(OCCn2nc3ccc(-c4ccc(OC(F)(F)F)cc4)cn3c2=O)ncc1F . 32.6

Name the recorded inhibition at 1 µM for O=c1n(CCc2ncccc2Br)nc2ccc(-c3ccc(OC(F)(F)F)cc3)cn12 . 39.8

Name the recorded inhibition at 1 µM for Cc1cnc(Cn2nc3ccc(-c4ccc(C(F)(F)F)cc4)cn3c2=O)o1 . 24.8

Name the recorded inhibition at 1 µM for Cc1noc(Cn2nc3ccc(-c4ccc(OCC(F)(F)F)cc4)cn3c2=O)n1 . 10.7
